assay: PAMPA permeability; conditions: PAMPA

COMPOUND	Perm. (1 × 10^−6 cm/sec)
CC1=C(C(=O)Nc2nncs2)C(c2nn(C)cc2Br)N=C(Nc2nc3ccccc3o2)N1 (stereo not shown)	1044.0 1 × 10^−6 cm/sec
CC1=C(C(=O)Nc2nncs2)C(c2cc(Cl)ccc2Cl)N=C(Nc2nc3ccccc3o2)N1 (stereo not shown)	2.9 1 × 10^−6 cm/sec
CC(C)C1=C(C(=O)Nc2nncs2)C(c2ccccc2Cl)N=C(Nc2nc3ccccc3o2)N1 (stereo not shown)	24.6 1 × 10^−6 cm/sec
CC1=C(C(=O)Nc2nncs2)C(c2n[nH]cc2Cl)N=C(Nc2nc3ccccc3o2)N1 (stereo not shown)	37.0 1 × 10^−6 cm/sec
CC1=C(C(=O)Nc2cccnc2)C(c2ccccc2Cl)N=C(Nc2nc3ccccc3o2)N1 (stereo not shown)	513.0 1 × 10^−6 cm/sec
CC1=C(C(=O)NCc2cnn(C)c2)C(c2ccc(Cl)cc2Cl)N=C(Nc2nc3cccc(N)c3o2)N1 (stereo not shown)	142.4 1 × 10^−6 cm/sec
COc1ccc(C2N=C(Nc3nc4ccccc4o3)NC(C)=C2C(=O)Nc2nncs2)c(Cl)c1 (stereo not shown)	31.9 1 × 10^−6 cm/sec
CC1=C(C(=O)Nc2cccc(C(=O)O)c2)C(c2ccccc2Cl)N=C(Nc2nc3ccccc3o2)N1 (stereo not shown)	<1 1 × 10^−6 cm/sec
CC1=C(C(=O)Nc2cccc(Cl)c2)C(c2ccccc2Cl)N=C(Nc2nc3ccccc3o2)N1 (stereo not shown)	<9.2 1 × 10^−6 cm/sec
CC1=C(C(=O)NCc2cnn(C)c2)C(c2ccc(C)cc2Cl)N=C(Nc2nc3ccc(F)c(C(=O)O)c3o2)N1 (stereo not shown)	<1 1 × 10^−6 cm/sec
CC1=C(C(=O)Nc2nncs2)C(c2ccc(C)cc2Cl)N=C(Nc2nc3ccccc3o2)N1 (stereo not shown)	<14.4 1 × 10^−6 cm/sec
CC1=C(C(=O)NCc2cn(C)cn2)[C@H](c2ccccc2Cl)N=C(Nc2nc3ccccc3o2)N1	866.5 1 × 10^−6 cm/sec
COC(=O)c1cncc(NC(=O)C2=C(C)NC(Nc3nc4ccccc4o3)=NC2c2ccccc2Cl)c1 (stereo not shown)	246.9 1 × 10^−6 cm/sec
COC(=O)c1ccc(CNC(=O)C2=C(C)NC(Nc3nc4ccccc4o3)=NC2c2ccccc2Cl)cc1 (stereo not shown)	543.4 1 × 10^−6 cm/sec
CN(C)C(=O)C1CC(=O)C2=C(C1)NC(Nc1nc3ccccc3o1)=NC2c1ccccc1Cl (stereo not shown)	219.68 1 × 10^−6 cm/sec
CC1=C(C(=O)NCc2cccc(C(=O)O)c2)C(c2ccccc2Cl)N=C(Nc2nc3ccccc3o2)N1 (stereo not shown)	<1.3 1 × 10^−6 cm/sec
CC1=C(C(=O)Nc2nncs2)C(c2cccnc2Br)N=C(Nc2nc3ccccc3o2)N1 (stereo not shown)	185.7 1 × 10^−6 cm/sec
CC1=C(C(=O)Nc2nncs2)C2(CCSCC2)N=C(Nc2nc3ccccc3o2)N1	417.5 1 × 10^−6 cm/sec
CC1=C(C(=O)NCc2cnn(C)c2C)C(c2ccc(C)cc2Cl)N=C(Nc2nc3ccc(F)cc3o2)N1 (stereo not shown)	460.2 1 × 10^−6 cm/sec
CC1=C(C(=O)Nc2nc(CO)cs2)C(c2ccccc2Cl)N=C(Nc2nc3ccccc3o2)N1 (stereo not shown)	59.9 1 × 10^−6 cm/sec
COC(=O)c1csc(NC(=O)C2=C(C)NC(Nc3nc4ccccc4o3)=NC2c2ccccc2Cl)n1 (stereo not shown)	65.6 1 × 10^−6 cm/sec
CC1=C(C(=O)Nc2ccc(CN3CCOCC3)cc2)C(c2ccccc2Cl)N=C(Nc2nc3ccccc3o2)N1 (stereo not shown)	120.4 1 × 10^−6 cm/sec
O=C1CC(C(=O)N2CCNCC2)CC2=C1C(c1ccccc1Cl)N=C(Nc1nc3ccccc3o1)N2 (stereo not shown)	<4.7 1 × 10^−6 cm/sec
CC1=C(C(=O)Nc2nncs2)C(c2ncccc2Cl)N=C(Nc2nc3ccccc3o2)N1 (stereo not shown)	695.3 1 × 10^−6 cm/sec
O=C1CC(C(=O)O)CC2=C1C(c1ccccc1Cl)N=C(Nc1nc3ccccc3o1)N2 (stereo not shown)	<1 1 × 10^−6 cm/sec
CC1=C(C(=O)Nc2ccc(C(N)=O)cc2)C(c2ccccc2Cl)N=C(Nc2nc3ccccc3o2)N1 (stereo not shown)	<6.3 1 × 10^−6 cm/sec
CC1=C(C(=O)Nc2nncs2)C(c2c(Br)cnn2C)N=C(Nc2nc3ccccc3o2)N1 (stereo not shown)	198.3 1 × 10^−6 cm/sec
CC1=C(C(=O)Nc2nncs2)C(c2n[nH]cc2Br)N=C(Nc2nc3ccccc3o2)N1 (stereo not shown)	27.4 1 × 10^−6 cm/sec
COC(=O)Cc1cccc(NC(=O)C2=C(C)NC(Nc3nc4ccccc4o3)=NC2c2ccccc2Cl)c1 (stereo not shown)	<17.4 1 × 10^−6 cm/sec
O=C(O)CNC(=O)C1CC(=O)C2=C(C1)NC(Nc1nc3ccccc3o1)=NC2c1ccccc1Cl (stereo not shown)	<1 1 × 10^−6 cm/sec
CCn1cc(CNC(=O)C2=C(C)NC(Nc3nc4cccc(N)c4o3)=NC2c2ccc(Cl)cc2Cl)cn1 (stereo not shown)	289.5 1 × 10^−6 cm/sec
